# study system: Phosphatidylinositol 4,5-bisphosphate 3-kinase catalytic subunit beta isoform (Homo sapiens, UniProt P42338)
# Sequence (P42338 whole entry, canonical isoform): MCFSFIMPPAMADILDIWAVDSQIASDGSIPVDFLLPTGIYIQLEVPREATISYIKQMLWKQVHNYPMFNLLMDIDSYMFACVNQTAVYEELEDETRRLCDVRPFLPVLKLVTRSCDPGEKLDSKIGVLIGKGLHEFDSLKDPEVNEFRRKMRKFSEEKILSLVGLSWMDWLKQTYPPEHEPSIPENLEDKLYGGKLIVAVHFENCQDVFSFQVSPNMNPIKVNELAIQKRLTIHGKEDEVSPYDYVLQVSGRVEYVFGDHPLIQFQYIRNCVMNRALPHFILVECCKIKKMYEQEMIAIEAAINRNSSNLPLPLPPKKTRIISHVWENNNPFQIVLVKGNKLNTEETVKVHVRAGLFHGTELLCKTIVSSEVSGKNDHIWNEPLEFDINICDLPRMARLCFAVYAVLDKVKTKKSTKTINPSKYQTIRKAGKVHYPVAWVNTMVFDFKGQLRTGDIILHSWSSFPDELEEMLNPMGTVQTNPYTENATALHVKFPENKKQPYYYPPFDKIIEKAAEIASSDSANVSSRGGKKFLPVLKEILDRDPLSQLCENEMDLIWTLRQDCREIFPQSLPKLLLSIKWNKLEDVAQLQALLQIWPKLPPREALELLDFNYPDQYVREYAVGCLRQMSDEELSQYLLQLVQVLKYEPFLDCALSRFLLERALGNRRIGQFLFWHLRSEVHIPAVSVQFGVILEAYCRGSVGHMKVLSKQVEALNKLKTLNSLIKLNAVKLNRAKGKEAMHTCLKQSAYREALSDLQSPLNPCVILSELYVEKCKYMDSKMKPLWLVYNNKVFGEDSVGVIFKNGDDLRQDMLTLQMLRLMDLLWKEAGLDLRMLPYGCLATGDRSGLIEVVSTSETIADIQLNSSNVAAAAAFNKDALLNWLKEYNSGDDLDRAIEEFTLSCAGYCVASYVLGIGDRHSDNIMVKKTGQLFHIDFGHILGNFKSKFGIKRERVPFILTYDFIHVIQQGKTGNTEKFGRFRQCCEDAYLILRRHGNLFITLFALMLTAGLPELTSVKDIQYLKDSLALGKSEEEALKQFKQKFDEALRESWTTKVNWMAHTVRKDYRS
# assay summary: Inhibition of PI3Kbeta human in PTEN wild type HCC1954 cells assessed as reduction of AKT phosphorylation at Ser 473
# Assay type: cell-based
assay endpoint: EC50

A selection of reference data follows.
[[record]]
smiles_string = "Cc1c(Cc2cnn3c(O)cc(-c4ccncc4)nc23)cccc1C(F)(F)F"
assay_endpoint = "EC50"
result = "> 31.6 µM"

[[record]]
smiles_string = "COc1nn2c(O)cc(-c3ccncc3)nc2c1Cc1cccc(Cl)c1Cl"
assay_endpoint = "EC50"
result = "> 31.6 µM"


Which EC50 is reported for this compound? `Cc1nn2c(NC(N)=O)cc(N3CCOCC3)nc2c1Cc1cccc(C(F)(F)F)c1C`
> 31.6 µM
